Test system: CAOV3
PROTOCOL DESCRIPTION: Primary qHTS to identify gynecologic anti-cancer compounds using libraries of approved drugs and bioactive compounds (AID 1345084); further: nearly all actives have a fitted effect of over 55% in size
CONDITION NOTES: Gynecologic cancer cell panel viability, ATPlite luminescence, 48 h; series mostly up to 57.5 µM
Inconclusive results are not listed. Activity calls are given as the source filed them. The call rests on the fitted dose curve; in most records, active means well fitted cell-killing curve with a large enough effect; inconclusive means small, poorly fitted or top-dose-only effect, or effect the other way; inactive means flat fitted curve, though single readings scatter.
Hi there, use one of these labels in your reply, thanks! active, inactive

Example cases with answers are listed next.
COMPOUND	MEASUREMENT TARGET	ASSIGNED LABEL
CC1CCCCCC(=O)c2c(O)cc(O)cc2CC(=O)O1 (stereo unspecified)	CAOV3	inactive
CC(=O)O[C@@H]1[C@H]2CC[C@H]3[C@@](C)(O)[C@@H]4C[C@H](O)C(C)(C)[C@@]4(O)[C@H](O)C[C@@]13C[C@@]2(C)O	CAOV3	inactive
COc1ccc2c(c1)c(CCN(C)C)cn2S(=O)(=O)c1ccccc1	CAOV3	inactive

Input line: How did this test come out for CC(C)[C@H](NC(=O)c1nn(Cc2ccc(F)cc2)c2ccccc12)C(N)=O ?
Output line: inactive

Input line: Short answer needed: outcome of this test for COC1CC(OC2CCC3(C=O)C(CCC4C3CCC3(C)C(C5=CC(=O)OC5)CCC43O)C2)OC(C)C1O (stereo unspecified) ?
Output line: active

Input line: Could you kindly confirm the outcome this assay logged for COc1ccsc1CNCC[C@@]1(c2ccccn2)CCOC2(CCCC2)C1 ?
Output line: inactive

Input line: I'd appreciate the recorded outcome for COC(=O)C12C(=O)C(C)(O)C(=O)C1(C)C(C)=CC1C3(C=O)CCC(OC(C)=O)C(C)(C)C3CCC12C (stereo unspecified) from this test.
Output line: inactive

Input line: Identify the outcome logged in this assay for the compound shown: C[C@H]1O[C@@H](O[C@H]2CC[C@]3(C=O)C4CC[C@]5(C)[C@@H](C6=CC(=O)OC6)CC[C@]5(O)[C@@H]4CC[C@]3(O)C2)C[C@@H](O)[C@@H]1O (stereo partly specified)
Output line: active

Input line: // outcome(item) with item = Clc1ccc([C@]23CNC[C@H]2C3)cc1Cl
Output line: inactive
